Recorded GI50 for the following molecules
- Tested on: SF-295
- experiment.summary: NCI tumour cell line growth inhibition, 48 h
Active and inactive are the calls of the source. No stated cut-off is given here; in the data, active = GI50 up to about 1.1 µM and inactive = higher.

molecule	GI50
O=C(/C=C/c1ccc(O)c(O)c1)OC1C[C@@](O)(C(=O)O)C[C@@H](O)[C@H]1OC(=O)/C=C/c1ccc(O)c(O)c1 (some centres undefined)	> 100 µM (inactive)
C[C@@H]1CC[C@@]2(OC1)O[C@H]1C[C@H]3[C@@H]4CC[C@H]5C[C@@H](OC6OC(CO)C(OC7OC(CO)C(O)C(OC8OCC(O)C(O)C8O)C7OC7OC(CO)C(O)C(O)C7O)C(O)C6O)[C@H](O)C[C@]5(C)[C@H]4CC[C@]3(C)[C@H]1[C@@H]2C (some centres undefined)	3.89 µM (inactive)
COC(=O)C1Cc2c(OC)ccc(OC)c2C(O)C1C(=O)OC (centres undefined)	> 100 µM (inactive)
CCN(CC)CCC(=O)/C=C/c1ccc(Cl)c(Cl)c1	> 10 µM (inactive)
Brc1ccc2c(C3CN[C@@H](c4c[nH]c5cc(Br)ccc45)CN3)c[nH]c2c1 (some centres undefined)	3.4 µM (inactive)

[Q] Recorded GI50 for `CC(=O)c1cnc2oc3ccc(O)cc3c2c1-c1ccccc1` , please?
[A] 30 µM (inactive)

[Q] Recorded GI50 for `O=C(Nc1ccc(S(=O)(=O)/N=c2\ncccn2C(=O)C(C(F)(F)F)C(F)(F)F)cc1)C(C(F)(F)F)C(F)(F)F` , please?
[A] > 100 µM (inactive)

[Q] Recorded GI50 for `COc1ccc(-c2cc(-c3ccc(Nc4ccnc5cc(C(F)(F)F)ccc45)cc3)nc(N)c2C#N)c2ccccc12` , please?
[A] > 100 µM (inactive)

[Q] Recorded GI50 for `CCOC(=O)N(C)C(=C(F)F)C(F)(F)F` , please?
[A] 57.5 µM (inactive)
